Kindly supply the reported pKd values for the records listed here.
# targetOrSystem: T1, CD137 protein (UniProt Q07011 24-186, limits assumed)
# T1 construct: also called CD137 antigen; CD137 receptor
# T1 sequence (Q07011 24-186 limits assumed): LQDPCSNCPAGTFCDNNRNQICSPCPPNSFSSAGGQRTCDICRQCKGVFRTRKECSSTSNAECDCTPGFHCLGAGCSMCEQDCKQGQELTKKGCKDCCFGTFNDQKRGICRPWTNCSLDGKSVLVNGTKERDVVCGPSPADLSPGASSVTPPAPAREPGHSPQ
# measurementNotes: BLI (Octet Red 96), antibody on anti-human Fc sensors, CD137 protein in solution, 1:1 model
One number for each entry, as −log10 of the molar value.

Known pKd results, listed for orientation:
// recorded pKd for humanized anti-CD137 antibody clone 3717 (IgG4 S228P/kappa) (antibody, V domains shown) VH: QVQLVQSGAEVVKPGASVKLSCKASGYTFAGFEMHWIRQAPGQGLGWIGAIDPKTGGTDYNQKFKDRATLTADTSISTAYMELSRLRSDDTAVYYCTRDLGYFDVWGQGTLVTVSS VL: DIQMTQSPSSLSASVGDRVTITCRASQDIRSNLNWYQQKPGKAPKLLIYYTSRLHSGVPSRFSGSGSGTDFTLTISSLQPEDFATYYCQQSEKLPRTFGGGTKVEIRR : 8.64

// recorded pKd for humanized anti-CD137 antibody clone 3711 (IgG4 S228P/kappa) (antibody, V domains shown) VH: QVQLVQSGAEVKKPGASVKVSCKASGYTFAGFEMHWVRQAPGQGLEWMGAIDPKTGGTDYNQKFKDRVTMTRDTSISTAYMELSRLRSDDTAVYYCARDLGYFDVWGQGTLVTVSS VL: DIQMTQSPSSLSASVGDRVTITCRASQDIRSNLNWYQQKPGKAPKLLIYYTSRLHSGVPSRFSGSGSGTDFTLTISSLQPEDFATYYCQQSEKLPRTFGGGTKVEIRR : 8.60

// recorded pKd for humanized anti-CD137 antibody clone 3719 (IgG4 S228P/kappa) (antibody, V domains shown) VH: QVQLVQSGAEVVKPGASVKLSCKASGYTFAGFEMHWIRQAPGQGLGWIGAIDPKTGGTDYNQKFKDRATLTADTSISTAYMELSRLRSDDTAVYYCTRDLGYFDVWGQGTLVTVSS VL: DIQMTQSPSSLSASVGDRVTITCRASQDIRSNLNWYQQKPGGAVKLLIYYTSRLHSGVPSRFSGSGSGTDYTLTISSLQPEDFATYFCQQSEKLPRTFGGGTKLEIRR : 8.07

// recorded pKd for reference antibody 371 (murine/human chimeric) (antibody, V domains shown) VH: QVQLQQSGAELVRPGASVTLSCKASGYTFAGFEMHWIKQTPVHGLGWIGAIDPKTGGTDYNQKFKDKALLTADKSSNTAYMELRSLTSEDSAVYYCTRDLGYFDVWGTGTTVTVSS VL: DIQMTQTTSSLSASLGDRVTISCRASQDIRSNLNWYQQKPDGTVKLLIYYTSRLHSGVPSRFSGSGSGTDYSLTISNLEQEDIATYFCQQSEKLPRTFGGGTKLEIRR : 8.41

Further cases:
// recorded pKd for humanized anti-CD137 antibody clone 3713 (IgG4 S228P/kappa) (antibody, V domains shown) VH: QVQLVQSGAEVKKPGASVKVSCKASGYTFAGFEMHWVRQAPGQGLEWMGAIDPKTGGTDYNQKFKDRVTMTRDTSISTAYMELSRLRSDDTAVYYCARDLGYFDVWGQGTLVTVSS VL: DIQMTQSPSSLSASVGDRVTITCRASQDIRSNLNWYQQKPGGAVKLLIYYTSRLHSGVPSRFSGSGSGTDYTLTISSLQPEDFATYFCQQSEKLPRTFGGGTKLEIRR : 8.42
